- target or system: AChE (rat cortex homogenate) (Rattus norvegicus)
- Sequence (P37136 32-614): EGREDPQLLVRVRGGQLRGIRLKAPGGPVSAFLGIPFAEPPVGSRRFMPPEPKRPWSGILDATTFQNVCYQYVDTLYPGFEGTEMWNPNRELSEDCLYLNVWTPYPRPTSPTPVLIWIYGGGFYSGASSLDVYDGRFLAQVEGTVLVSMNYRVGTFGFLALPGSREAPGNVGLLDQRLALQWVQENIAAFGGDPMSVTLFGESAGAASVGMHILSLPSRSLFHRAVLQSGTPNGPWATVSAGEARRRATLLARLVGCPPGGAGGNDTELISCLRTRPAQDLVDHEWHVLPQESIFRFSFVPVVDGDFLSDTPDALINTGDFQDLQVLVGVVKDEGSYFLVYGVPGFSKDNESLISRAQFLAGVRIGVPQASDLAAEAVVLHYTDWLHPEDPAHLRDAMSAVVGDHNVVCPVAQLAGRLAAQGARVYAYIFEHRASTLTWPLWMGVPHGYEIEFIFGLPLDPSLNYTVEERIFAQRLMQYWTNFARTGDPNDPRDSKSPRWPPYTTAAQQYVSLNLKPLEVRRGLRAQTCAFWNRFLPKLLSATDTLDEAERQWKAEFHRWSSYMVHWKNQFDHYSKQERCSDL
- test name: biochemical
- cond: rat cortex homogenate, in the presence of ethopropazine as a specific BuChE inhibitor
This listing pairs molecules with measured IC50.
metric name: IC50 (µM)

> print(dat)
                                   molecule  metric.name  recorded.measurement
1  O=c1ccc2c([nH]1)CCCC2NCCCCCCCCCCCCCNC1CCCc2[nH]c(=O)ccc21 (centres unmarked) [E13E]         IC50                 0.052
2  O=c1ccc2c([nH]1)CCCC2NCCCCCCCCCCCNC1CCCc2[nH]c(=O)ccc21 (centres unmarked) [E11E]         IC50                 0.084
